Kindly state inhibition for each of the entries shown.
organism: Bos taurus; experiment: Displacement of [3H]colchicine from bovine brain tubulin at 5 uM after 10 mins by scintillation counting analysis
Your answer is read as %, so omit the unit and give the number.

Task item: Report inhibition for O=C(/C=C/C(=O)c1ccc(F)cc1)Nc1ccccc1
Reply: 11

Task item: Report inhibition for Cc1ccc(C)c(C(=O)/C=C/C(=O)Nc2ccccc2)c1
Reply: 9.3

Task item: Report inhibition for O=C(/C=C/C(=O)c1ccc(Br)cc1)Nc1ccccc1
Reply: 6.2

Task item: Report inhibition for Cc1ccc(C(=O)/C=C/C(=O)Nc2ccccc2)cc1C
Reply: 7

Task item: Report inhibition for CC(C)c1ccc(C(=O)/C=C/C(=O)NC2CCCCC2)cc1
Reply: 9.6

Task item: Report inhibition for O=C(/C=C/C(=O)c1ccc(Cl)c(Cl)c1)Nc1ccccc1
Reply: 0.3

---

organism: Bos taurus; test: Displacement of [3H]colchicine from bovine brain tubulin at 50 uM after 10 mins by scintillation counting analysis
Kindly state inhibition for each of the entries shown.
Your answer is read as %, so omit the unit and give the number.

Task item: Report inhibition for O=C(/C=C/C(=O)c1ccc(Cl)cc1)Nc1ccccc1
Reply: 19

Task item: Report inhibition for O=C(/C=C/C(=O)c1ccc(F)cc1)Nc1ccccc1
Reply: 31

Task item: Report inhibition for CC(C)c1ccc(C(=O)/C=C/C(=O)NC2CCCCC2)cc1
Reply: 14

Task item: Report inhibition for CC(C)c1ccc(C(=O)/C=C/C(=O)Nc2ccccc2)cc1
Reply: 25

Task item: Report inhibition for O=C(/C=C/C(=O)c1ccc2c(c1)CCCC2)NC1CCCCC1
Reply: 13

Task item: Report inhibition for O=C(/C=C/C(=O)c1ccccc1)Nc1ccccc1
Reply: 39

Task item: Report inhibition for O=C(/C=C/C(=O)c1ccc(Cl)c(Cl)c1)Nc1ccccc1
Reply: 20

Task item: Report inhibition for Cc1ccc(C)c(C(=O)/C=C/C(=O)Nc2ccccc2)c1
Reply: 38

Task item: Report inhibition for Cc1ccc(C(=O)/C=C/C(=O)Nc2ccccc2)cc1C
Reply: 14

Task item: Report inhibition for Cc1ccc(C)c(C(=O)/C=C/C(=O)NCc2ccccc2)c1
Reply: 19

Task item: Report inhibition for O=C(/C=C/C(=O)c1ccc(Br)cc1)Nc1ccccc1
Reply: 28

Task item: Report inhibition for CCCCc1ccc(C(=O)/C=C/C(=O)Nc2ccccc2)cc1
Reply: 20

Task item: Report inhibition for COc1ccc(C(=O)/C=C/C(=O)Nc2ccccc2)cc1
Reply: 24
